These measurements were taken from ChEMBL document CHEMBL5230136.

System: Candida albicans
Assay: Antifungal activity against Candida albicans assessed as zone of inhibition at 20 mg/ml
Format: functional
Conditions: read-out: IZ
zone of inhibition at 20000 µg/mL values by entry
Measured Quantity: zone of inhibition at 20000 µg/mL

Compound Structure String	Target Under Test	Result
CCOC(=O)c1sc2c(c1NC(=O)CNc1ccc(S(=O)(=O)NN=N)cc1)c(=O)oc1ccccc12	Candida albicans	13 mm
NNC(=O)c1sc2c(c1N)c(=O)oc1ccccc12	Candida albicans	14 mm
CCOC(=O)c1sc2c(c1NC(=O)CCl)c(=O)oc1ccccc12	Candida albicans	10 mm
CCOC(=O)c1sc2c(c1NC(=O)CNc1ccccc1)c(=O)oc1ccccc12	Candida albicans	13 mm
